measured-on: NHE3 (Homo sapiens, UniProt P48764)
Construct: expressed in transfected cells
Sequence (P48764 26-834): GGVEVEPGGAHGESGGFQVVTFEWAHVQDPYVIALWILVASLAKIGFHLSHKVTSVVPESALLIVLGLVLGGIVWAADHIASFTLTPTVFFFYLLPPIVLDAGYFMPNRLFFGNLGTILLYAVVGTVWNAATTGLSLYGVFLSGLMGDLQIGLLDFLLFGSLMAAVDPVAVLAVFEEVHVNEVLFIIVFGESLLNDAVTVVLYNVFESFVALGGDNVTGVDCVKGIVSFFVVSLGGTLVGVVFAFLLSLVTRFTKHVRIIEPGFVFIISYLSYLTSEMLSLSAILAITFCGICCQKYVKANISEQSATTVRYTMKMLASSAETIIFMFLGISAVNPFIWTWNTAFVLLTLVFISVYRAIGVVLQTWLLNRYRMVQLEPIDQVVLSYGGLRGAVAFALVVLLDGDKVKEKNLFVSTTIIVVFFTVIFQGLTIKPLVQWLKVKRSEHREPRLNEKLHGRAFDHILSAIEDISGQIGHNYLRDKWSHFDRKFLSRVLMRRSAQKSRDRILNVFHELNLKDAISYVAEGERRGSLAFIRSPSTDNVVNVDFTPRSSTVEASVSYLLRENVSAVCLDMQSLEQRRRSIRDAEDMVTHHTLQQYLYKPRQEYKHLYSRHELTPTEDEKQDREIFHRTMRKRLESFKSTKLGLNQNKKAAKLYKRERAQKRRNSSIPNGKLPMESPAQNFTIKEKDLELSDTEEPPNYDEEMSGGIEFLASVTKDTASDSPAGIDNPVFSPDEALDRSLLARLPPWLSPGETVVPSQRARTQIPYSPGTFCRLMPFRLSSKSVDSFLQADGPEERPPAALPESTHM
Sequence (Q99653 2-195 partner limits assumed): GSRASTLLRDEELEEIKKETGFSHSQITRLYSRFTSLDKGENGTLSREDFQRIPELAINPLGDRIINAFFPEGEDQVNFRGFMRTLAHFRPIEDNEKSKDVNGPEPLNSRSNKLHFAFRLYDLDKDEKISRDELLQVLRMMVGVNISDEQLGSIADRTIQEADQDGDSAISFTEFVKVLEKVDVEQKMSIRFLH
experiment-notes: Cell-based assay of NHE-3 activity (pre-incubation inhibition), human
test-settings: human Preincubation

| compound | % inhibition |
| --- | --- |
| N#Cc1cc(Cl)cc2c1C[C@H](N1CCNCC1)[C@H]2Oc1ccc(S(=O)(=O)NC(=O)CCCNC(=O)NCCCCNC(=O)NCCCC(=O)NS(=O)(=O)c2ccc(O[C@H]3c4cc(Cl)cc(C#N)c4C[C@@H]3N3CCNCC3)cc2)cc1 [Example 124] | C (>70%) |
| Cc1cc(S(=O)(=O)NCCOCCOCCNC(=O)NCCCCNC(=O)NCCOCCOCCNS(=O)(=O)c2ccc(O[C@H]3c4cc(Cl)cc(C)c4C[C@@H]3N3CCC[C@@H](N)C3)c(C)c2)ccc1O[C@H]1c2cc(Cl)cc(C)c2C[C@@H]1N1CCC[C@@H](N)C1 [Example 7] | C (>70%) |
| Cc1cc(S(=O)(=O)NCCOCCOCCNC(=O)NCCCCNC(=O)NCCOCCOCCNS(=O)(=O)c2ccc(O[C@H]3c4cc(Cl)cc(Cl)c4C[C@@H]3N3CCC[C@@H](N(C)C)C3)c(C)c2)ccc1O[C@H]1c2cc(Cl)cc(Cl)c2C[C@@H]1N1CCC[C@@H](N(C)C)C1 [Example 26] | C (>70%) |
| Cc1cc(S(=O)(=O)NCCOCCOCCNC(=O)NCCCCNC(=O)NCCOCCOCCNS(=O)(=O)c2ccc(O[C@H]3c4cc(Cl)cc(OC(F)(F)F)c4C[C@@H]3N(C)C)c(C)c2)ccc1O[C@H]1c2cc(Cl)cc(OC(F)(F)F)c2C[C@@H]1N(C)C [Example 20] | A (NHE3 < 40%) |
| Cc1cc(S(=O)(=O)N2CC[C@H](COc3ccnc(CNC(=O)NCCCCNC(=O)NCc4cc(OC[C@H]5CCN(S(=O)(=O)c6ccc(O[C@H]7c8cc(Cl)cc(C#N)c8C[C@@H]7N(C)C)c(C)c6)C5)ccn4)c3)C2)ccc1O[C@H]1c2cc(Cl)cc(C#N)c2C[C@@H]1N(C)C [Example 50] | B (40-70%) |
| COc1cc(Cl)cc2c1C[C@H](N(C)C)[C@H]2Oc1ccc(S(=O)(=O)NCCOCCOCCNC(=O)NCCCCNC(=O)NCCOCCOCCNS(=O)(=O)c2ccc(O[C@H]3c4cc(Cl)cc(OC)c4C[C@@H]3N(C)C)cc2)cc1 [Example 15] | C (>70%) |
| Cc1cc(S(=O)(=O)NCCOCCOCCNC(=O)NCCCCNC(=O)NCCOCCOCCNS(=O)(=O)c2ccc(O[C@H]3c4cc(Cl)cc(F)c4C[C@@H]3N3CCC[C@@H](N)C3)c(C)c2)ccc1O[C@H]1c2cc(Cl)cc(F)c2C[C@@H]1N1CCC[C@@H](N)C1 [Example 6] | A (NHE3 < 40%) |
| N[C@@H]1CCCN([C@H]2Cc3c(Cl)cc(Cl)cc3[C@@H]2Oc2ccc(S(=O)(=O)NCCOCCOCCNC(=O)NCCCCNC(=O)NCCOCCOCCNS(=O)(=O)c3ccc(O[C@H]4c5cc(Cl)cc(Cl)c5C[C@@H]4N4CCC[C@@H](N)C4)c(F)c3)cc2F)C1 [Example 2] | C (>70%) |
| Cc1cc(Cl)cc2c1C[C@H](N1CCC[C@@H](N(C)C)C1)[C@H]2Oc1ccc(S(=O)(=O)NCCOCCOCCNC(=O)NCCCCNC(=O)NCCOCCOCCNS(=O)(=O)c2ccc(O[C@H]3c4cc(Cl)cc(C)c4C[C@@H]3N3CCC[C@@H](N(C)C)C3)cc2)cc1 [Example 28] | C (>70%) |
| Cc1cc(S(=O)(=O)N[C@H]2CCN(CCOCCNC(=O)NCCCCNC(=O)NCCOCCN3CC[C@H](NS(=O)(=O)c4ccc(O[C@H]5c6cc(Cl)cc(C#N)c6C[C@@H]5N(C)C)c(C)c4)C3)C2)ccc1O[C@H]1c2cc(Cl)cc(C#N)c2C[C@@H]1N(C)C [Example 54] | C (>70%) |
| CN(C)C(=O)N1CCN([C@H]2Cc3c(Cl)cc(Cl)cc3[C@@H]2Oc2ccc(S(=O)(=O)NCCOCCOCCNC(=O)NCCCCNC(=O)NCCOCCOCCNS(=O)(=O)c3ccc(O[C@H]4c5cc(Cl)cc(Cl)c5C[C@@H]4N4CCN(C(=O)N(C)C)CC4)cc3)cc2)CC1 [Example 76] | C (>70%) |
| Cc1cc(S(=O)(=O)N2CC[C@@H](COCCOCCNC(=O)NCCCCNC(=O)NCCOCCOC[C@@H]3CCN(S(=O)(=O)c4ccc(O[C@H]5c6cc(Cl)cc(Cl)c6C[C@@H]5N(C)C)c(C)c4)C3)C2)ccc1O[C@H]1c2cc(Cl)cc(Cl)c2C[C@@H]1N(C)C [Example 45] | C (>70%) |
| Cc1cc(S(=O)(=O)NCCOCCOCCNC(=O)NCCCCNC(=O)NCCOCCOCCNS(=O)(=O)c2ccc(O[C@H]3c4cc(Cl)cc(Cl)c4C[C@@H]3N3CCC[C@@H](N)C3)c(C)c2)ccc1O[C@H]1c2cc(Cl)cc(Cl)c2C[C@@H]1N1CCC[C@@H](N)C1 [Example 1] | C (>70%) |
| O=C(NCCCCNC(=O)NCCOCCOCCNS(=O)(=O)c1ccc(O[C@H]2c3cc(Cl)cc(Cl)c3C[C@@H]2N2CC3CCC2CC3)cc1)NCCOCCOCCNS(=O)(=O)c1ccc(O[C@H]2c3cc(Cl)cc(Cl)c3C[C@@H]2N2CC3CCC2CC3)cc1 [Example 69] | C (>70%) |
| CN(C)[C@H]1Cc2c(C#N)cc(Cl)cc2[C@@H]1Oc1ccc(S(=O)(=O)NCCOCCOCCNC(=O)NCCCCNC(=O)NCCOCCOCCNS(=O)(=O)c2ccc(O[C@H]3c4cc(Cl)cc(C#N)c4C[C@@H]3N(C)C)c(F)c2)cc1F [Example 37] | B (40-70%) |

Source: patent US11242337B2
